Data origin, for the record: ChEMBL document CHEMBL1136559

# PROCEDURE SUMMARY: Area under the curve was measured in rat after an iv dose of 1 mg/kg
# Type: ADME, organism-based
# Set-up: dose 1 mg/kg, route intravenous
# EXPERIMENTAL SETUP: in vivo
Starred links: 1 amine or outer side, 2 acyl side, 3 side chain; linkers in the order of their positions; H or OH if unused. Positions of bridges follow the written chain, without caps; N, C: chain ends. Non-standard residues stand in square brackets, D forms with d. Residues, ends and D or L forms follow the SMILES beside them. *: point of attachment. pTerphenylCO(4''-OnC5H11) = CCCCCOc1ccc(-c2ccc(-c3ccc(C(=O)*)cc3)cc2)cc1; X1 = NCC(=O)Nc1cc(CC[C@H](N[*:1])C(=O)[*:2])ccc1O; X2 = NC(N)=N[C@H]1CC(C(=O)[*:2])N([*:1])C1; Hyp = O=C(O)[C@@H]1C[C@@H](O)CN1; Orn = NCCC[C@H](N)C(=O)O
READOUT NAME: AUC (ng·h/mL)
Output spec: scalar in ng·h/mL, unitless text.

Need AUC, item CCCCCOc1ccc(-c2ccc(-c3ccc(C(=O)N[C@H]4CCCNC(=O)C5C[C@H](N=C(N)N)CN5C(=O)[C@H]([C@@H](C)O)NC(=O)[C@H](CCc5ccc(O)c(NC(=O)CN)c5)NC(=O)[C@@H]5C[C@@H](O)CN5C(=O)[C@H]([C@@H](C)O)NC4=O)cc3)cc2)cc1 (stereo partly specified) ({pTerphenylCO(4''-OnC5H11)}-[Orn]T[Hyp][X1]T[X2]; lactam 1-C)
11700
